B1: Far upstream element-binding protein 3, residues 75 to 150; numbered along this chain, Q96I24 (parent)
chain: RTVITEEFKVPDKMVGFIIGRGGEQISRIQAESGCKIQIASESSGIPERPCVLTGTPESIEQAKRLLGQIVDRCRN

# Variants of: B1
# Assay text: abundance fitness (aPCA) (normalised: wild type 0, dead -1); higher = more abundant; growth selection in yeast, the domain comes from the species named
# Measurement context: Homo sapiens
Readout: abundance fitness
Returns: the value as a bare number; no unit string appended.

> print(dat)
   mutation.string            readout  observed
1             Q69A  abundance fitness    -0.006

Short answer for `A31V` : abundance fitness was -0.061

Measured abundance fitness of `S27A` : -0.033
